# Tested on: Rattus norvegicus
# experiment_notes: Estrogenic antagonistic activity in bilaterally ovariectomized Sprague-Dawley rat assessed as inhibition of ethynylesterol-induced uterine weight at 10 mg/kg, po once daily for 3 days measured on day 31 of age
# Format: functional
Attribute: inhibition in vivo at 10 mg/kg
measure: inhibition in vivo at 10 mg/kg (%)

# molecule, system_tested, measure, unit_tag, endpoint_result
records = [
    ("CC(=O)Oc1ccc([C@@H]2Oc3ccccc3[C@H](c3ccc(OCCN(C(C)C)C(C)C)cc3)[C@H]2c2ccccc2)cc1", "Rattus norvegicus", "inhibition in vivo at 10 mg/kg", "%", 73.9),
    ("CC(=O)Oc1ccc([C@@H]2Oc3ccccc3[C@H](c3ccc(OCCN4CCCCC4)cc3)[C@H]2c2ccccc2)cc1", "Rattus norvegicus", "inhibition in vivo at 10 mg/kg", "%", 51.4),
    ("CC(=O)Oc1ccc([C@@H]2Oc3ccccc3[C@H](c3ccc(OCCCN(C)C)cc3)[C@H]2c2ccccc2)cc1", "Rattus norvegicus", "inhibition in vivo at 10 mg/kg", "%", 58.4),
    ("COc1ccc2c(c1)OC(C)(C)C(c1ccccc1)C2c1ccc(OCCN2CCCC2)cc1 (centres undefined) [ORMELOXIFENE]", "Rattus norvegicus", "inhibition in vivo at 10 mg/kg", "%", 77.9),
    ("Oc1ccc([C@@H]2Oc3ccccc3[C@H](c3ccc(OCCN4CCCCC4)cc3)[C@H]2c2ccccc2)cc1", "Rattus norvegicus", "inhibition in vivo at 10 mg/kg", "%", 51.5),
    ("CC(=O)Oc1ccc([C@@H]2Oc3ccccc3[C@H](c3ccc(OCCN4CCCCCC4)cc3)[C@H]2c2ccccc2)cc1", "Rattus norvegicus", "inhibition in vivo at 10 mg/kg", "%", 30.6),
    ("Oc1ccc([C@H]2c3ccccc3O[C@@H](c3ccc(O)cc3)[C@@H]2c2ccccc2)cc1", "Rattus norvegicus", "inhibition in vivo at 10 mg/kg", "%", 21.2),
    ("CC(=O)Oc1ccc([C@@H]2Oc3ccccc3[C@H](c3ccc(O)cc3)[C@H]2c2ccccc2)cc1", "Rattus norvegicus", "inhibition in vivo at 10 mg/kg", "%", 4.2),
    ("CC/C(=C(\\c1ccccc1)c1ccc(OCCN(C)C)cc1)c1ccccc1 [TAMOXIFEN]", "Rattus norvegicus", "inhibition in vivo at 10 mg/kg", "%", 27.4),
    ("CCN(CC)CCOc1ccc([C@H]2c3ccccc3O[C@@H](c3ccc(OC(C)=O)cc3)[C@@H]2c2ccccc2)cc1", "Rattus norvegicus", "inhibition in vivo at 10 mg/kg", "%", 59.3),
    ("CC(C)N(CCOc1ccc([C@H]2c3ccccc3O[C@@H](c3ccc(O)cc3)[C@@H]2c2ccccc2)cc1)C(C)C", "Rattus norvegicus", "inhibition in vivo at 10 mg/kg", "%", 69),
    ("Oc1ccc([C@@H]2Oc3ccccc3[C@H](c3ccc(OCCN4CCCC4)cc3)[C@H]2c2ccccc2)cc1", "Rattus norvegicus", "inhibition in vivo at 10 mg/kg", "%", 69.2),
    ("OC1c2ccccc2O[C@@H](c2ccc(OCCN3CCCC3)cc2)[C@@H]1c1ccccc1 (some centres undefined)", "Rattus norvegicus", "inhibition in vivo at 10 mg/kg", "%", 29),
    ("O=C1c2ccccc2O[C@@H](c2ccc(OCCN3CCCC3)cc2)[C@@H]1c1ccccc1", "Rattus norvegicus", "inhibition in vivo at 10 mg/kg", "%", 45.4),
]

----------
# Tested on: MCF7
# experiment_notes: Antiproliferative activity against human MCF7 cells after 48 hrs by MTT assay
# Assay type: functional, cell-based
# setup_conditions: Homo sapiens, MCF7, 48 h; read-out: IC50
Exam item: assign label 1 to entries whose IC50 is below 8 µM and label 0 to entries at or above 8 µM. Note that a value of exactly 8 µM receives label 0.

# compound, answer_label
rows = [
    ("CC/C(=C(\\c1ccccc1)c1ccc(OCCN(C)C)cc1)c1ccccc1 [TAMOXIFEN]", "label 1"),
    ("CC(=O)Oc1ccc([C@@H]2Oc3ccccc3[C@H](c3ccc(OCCN4CCCCC4)cc3)[C@H]2c2ccccc2)cc1", "label 0"),
    ("CCN(CC)CCOc1ccc([C@H]2c3ccccc3O[C@@H](c3ccc(OC(C)=O)cc3)[C@@H]2c2ccccc2)cc1", "label 0"),
    ("Oc1ccc([C@@H]2Oc3ccccc3[C@H](c3ccc(OCCN4CCCC4)cc3)[C@H]2c2ccccc2)cc1", "label 0"),
    ("CC(C)N(CCOc1ccc([C@H]2c3ccccc3O[C@@H](c3ccc(O)cc3)[C@@H]2c2ccccc2)cc1)C(C)C", "label 1"),
    ("CC(=O)Oc1ccc([C@@H]2Oc3ccccc3[C@H](c3ccc(OCCCN(C)C)cc3)[C@H]2c2ccccc2)cc1", "label 0"),
]
